Source listed as ChEMBL document CHEMBL4387774.

measurement target: Amyloid-beta precursor protein (Homo sapiens)
assay protocol: Inhibition of self-induced amyloid beta 42 (unknown origin) aggregation at 1 uM incubated for 20 hrs by thioflavin-T fluorescence assay relative to control
result type: inhibition
Answers without a unit are incomplete; give the number and then its unit.

Reference set, count: 5
O=C(/C=C/c1cc(O)ccc1O)CC(=O)c1cccc(O)c1O
100%
O=C(/C=C/c1ccc(O)cc1)CC(=O)/C=C/c1cc(O)ccc1O
53%
O=C(/C=C/c1ccccc1O)CC(=O)/C=C/c1cc(O)ccc1O
80%
O=C(/C=C(O)/C=C/c1ccccc1O)/C=C/c1ccc(O)c(O)c1
62%
O=C(/C=C/c1ccc(O)c(O)c1)CC(=O)/C=C/c1cc(O)ccc1O
57%

# map each compound to its inhibition
1. O=C(/C=C/c1cccc(O)c1O)c1cc(O)ccc1O
2. O=C(/C=C/c1ccccc1O)CC(=O)/C=C/c1cccc(O)c1O
3. O=C(/C=C/c1cccc(O)c1)/C=C/c1cccc(O)c1O

Result string:
1: 98%; 2: 92%; 3: 90%
